This listing pairs molecules with measured DC50.
Test target: HiBit-BRG1 fusion protein (Homo sapiens, UniProt P51532)
Construct: expressed in transfected cells
Sequence (P51532 whole entry, the tested form may be a part): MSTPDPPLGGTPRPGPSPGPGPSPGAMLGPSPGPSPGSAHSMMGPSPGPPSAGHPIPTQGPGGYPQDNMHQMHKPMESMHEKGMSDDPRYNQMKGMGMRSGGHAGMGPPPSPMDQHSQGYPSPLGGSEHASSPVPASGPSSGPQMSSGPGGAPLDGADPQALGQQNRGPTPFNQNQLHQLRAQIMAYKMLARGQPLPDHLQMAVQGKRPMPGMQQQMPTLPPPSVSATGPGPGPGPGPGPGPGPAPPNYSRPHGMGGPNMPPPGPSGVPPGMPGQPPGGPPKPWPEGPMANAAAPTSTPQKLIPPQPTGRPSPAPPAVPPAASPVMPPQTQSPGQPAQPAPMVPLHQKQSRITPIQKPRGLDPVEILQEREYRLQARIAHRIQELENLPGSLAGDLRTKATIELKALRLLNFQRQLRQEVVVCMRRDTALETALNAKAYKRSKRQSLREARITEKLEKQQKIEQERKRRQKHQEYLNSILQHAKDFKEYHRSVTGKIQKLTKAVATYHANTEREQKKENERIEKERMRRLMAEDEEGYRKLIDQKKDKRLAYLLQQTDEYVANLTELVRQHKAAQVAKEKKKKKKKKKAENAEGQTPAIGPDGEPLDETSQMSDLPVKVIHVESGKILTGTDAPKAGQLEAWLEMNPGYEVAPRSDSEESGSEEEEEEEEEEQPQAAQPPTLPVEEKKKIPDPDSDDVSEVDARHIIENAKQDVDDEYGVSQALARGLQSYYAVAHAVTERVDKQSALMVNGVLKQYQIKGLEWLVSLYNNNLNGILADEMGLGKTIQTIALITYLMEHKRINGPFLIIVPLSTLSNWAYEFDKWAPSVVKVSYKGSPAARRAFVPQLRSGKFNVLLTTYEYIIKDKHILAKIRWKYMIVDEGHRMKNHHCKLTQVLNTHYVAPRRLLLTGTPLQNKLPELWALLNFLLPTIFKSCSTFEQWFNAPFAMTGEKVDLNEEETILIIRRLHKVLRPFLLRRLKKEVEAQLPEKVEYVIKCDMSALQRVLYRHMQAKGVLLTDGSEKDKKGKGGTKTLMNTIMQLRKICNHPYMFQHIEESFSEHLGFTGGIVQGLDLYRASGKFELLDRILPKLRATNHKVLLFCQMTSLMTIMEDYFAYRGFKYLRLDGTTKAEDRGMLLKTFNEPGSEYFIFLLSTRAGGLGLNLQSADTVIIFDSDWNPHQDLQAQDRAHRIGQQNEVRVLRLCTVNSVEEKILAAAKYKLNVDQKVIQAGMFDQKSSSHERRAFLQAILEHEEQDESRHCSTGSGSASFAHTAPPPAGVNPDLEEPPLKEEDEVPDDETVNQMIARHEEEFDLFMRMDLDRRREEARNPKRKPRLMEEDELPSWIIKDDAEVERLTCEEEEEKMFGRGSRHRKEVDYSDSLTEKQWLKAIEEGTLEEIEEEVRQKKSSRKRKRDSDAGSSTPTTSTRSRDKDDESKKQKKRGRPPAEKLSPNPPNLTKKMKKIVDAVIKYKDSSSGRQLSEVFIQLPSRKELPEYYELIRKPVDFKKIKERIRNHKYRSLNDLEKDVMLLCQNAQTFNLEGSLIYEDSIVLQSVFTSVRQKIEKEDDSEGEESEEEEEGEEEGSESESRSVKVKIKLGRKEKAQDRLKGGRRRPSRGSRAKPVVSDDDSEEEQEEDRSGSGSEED
Protocol: HiBiT-BRG1 cell-based degradation assay (Nano-Glo HiBiT Lytic Detection, 24 h)
Experimental conditions: HeLa cell line expressing HiBit-BRG1 and LgBit, read-out: BRMG1 HiBit Degradation IC50

INPUT: Value lookup for DC50; key = Cc1ncsc1-c1ccc([C@H](C)NC(=O)[C@@H]2C[C@@H](O)CN2C(=O)[C@@H](c2cc(OCCNCC34CC(c5cc6cc(-c7ccccc7O)nnc6[nH]5)(C3)C4)no2)C(C)C)cc1 (racemic)
OUTPUT: > 0.1 µM

Others:
INPUT: Value lookup for DC50; key = Cc1ncsc1-c1ccc([C@H](C)NC(=O)[C@@H]2C[C@@H](O)CN2C(=O)[C@@H](c2cc(OCCN3CC[C@@H](c4[nH]c5nnc(-c6ccccc6O)cc5c4C)C3)no2)C(C)C)cc1 (racemic)
OUTPUT: > 0.01 µM

INPUT: Now the molecule Cc1ncsc1-c1ccc([C@H](C)NC(=O)[C@@H]2C[C@@H](O)CN2C(=O)[C@@H](c2cc(OCCN3CCC34CC(c3cc5cc(-c6ccccc6O)nnc5[nH]3)C4)no2)C(C)C)cc1 (mixture of isomers)
OUTPUT: > 0.1 µM

INPUT: Now the molecule Cc1ncsc1-c1ccc([C@H](C)NC(=O)[C@@H]2C[C@@H](O)CN2C(=O)C(c2cc(C3CCN(C(=O)[C@H]4CCc5[nH]c6nnc(-c7ccccc7O)cc6c5C4)CC3)no2)C(C)C)cc1 (single isomer, unassigned)
OUTPUT: > 0.1 µM

INPUT: Now the molecule Cc1ncsc1-c1ccc(C(C)NC(=O)C2CC(O)CN2C(=O)C(c2cc(OCCN3CC4C(C3)C4c3c(C)[nH]c4nnc(-c5ccccc5O)cc34)no2)C(C)C)cc1 (stereo not drawn)
OUTPUT: > 1 µM

INPUT: Now the molecule Cc1ncsc1-c1ccc([C@H](C)NC(=O)[C@@H]2C[C@@H](O)CN2C(=O)[C@@H](c2cc(N3CCN(CC(=O)N4CC(c5cc6cc(-c7ccccc7O)nnc6[nH]5)C4)CC3)no2)C(C)C)cc1 (racemic)
OUTPUT: > 1 µM

INPUT: Now the molecule Cc1ncsc1-c1ccc([C@H](C)NC(=O)C2C[C@@H](O)CN2C(=O)[C@@H](c2cc(OCCN3C[C@H]4C[C@H](c5[nH]c6nnc(-c7ccccc7O)cc6c5C)C[C@H]4C3)no2)C(C)C)cc1 (single isomer, unassigned)
OUTPUT: > 0.01 µM

INPUT: Now the molecule Cc1ncsc1-c1ccc([C@H](C)NC(=O)[C@@H]2C[C@@H](O)CN2C(=O)[C@@H](c2cc(OCCNC34CC(c5cc6cc(-c7ccccc7O)nnc6[nH]5)(C3)C4)no2)C(C)C)cc1 (racemic)
OUTPUT: > 0.01 µM

INPUT: Now the molecule Cc1ncsc1-c1ccc([C@H](C)NC(=O)[C@@H]2C[C@@H](O)CN2C(=O)[C@@H](c2cc(N3CCC(CN4CC(c5cc6cc(-c7ccccc7O)nnc6[nH]5)C4)CC3)no2)C(C)C)cc1 (racemic)
OUTPUT: > 1 µM

----------
Test target: HiBit-BRM fusion protein (Homo sapiens, UniProt P51531)
Construct: expressed in transfected cells
Sequence (P51531 whole entry, the tested form may be a part): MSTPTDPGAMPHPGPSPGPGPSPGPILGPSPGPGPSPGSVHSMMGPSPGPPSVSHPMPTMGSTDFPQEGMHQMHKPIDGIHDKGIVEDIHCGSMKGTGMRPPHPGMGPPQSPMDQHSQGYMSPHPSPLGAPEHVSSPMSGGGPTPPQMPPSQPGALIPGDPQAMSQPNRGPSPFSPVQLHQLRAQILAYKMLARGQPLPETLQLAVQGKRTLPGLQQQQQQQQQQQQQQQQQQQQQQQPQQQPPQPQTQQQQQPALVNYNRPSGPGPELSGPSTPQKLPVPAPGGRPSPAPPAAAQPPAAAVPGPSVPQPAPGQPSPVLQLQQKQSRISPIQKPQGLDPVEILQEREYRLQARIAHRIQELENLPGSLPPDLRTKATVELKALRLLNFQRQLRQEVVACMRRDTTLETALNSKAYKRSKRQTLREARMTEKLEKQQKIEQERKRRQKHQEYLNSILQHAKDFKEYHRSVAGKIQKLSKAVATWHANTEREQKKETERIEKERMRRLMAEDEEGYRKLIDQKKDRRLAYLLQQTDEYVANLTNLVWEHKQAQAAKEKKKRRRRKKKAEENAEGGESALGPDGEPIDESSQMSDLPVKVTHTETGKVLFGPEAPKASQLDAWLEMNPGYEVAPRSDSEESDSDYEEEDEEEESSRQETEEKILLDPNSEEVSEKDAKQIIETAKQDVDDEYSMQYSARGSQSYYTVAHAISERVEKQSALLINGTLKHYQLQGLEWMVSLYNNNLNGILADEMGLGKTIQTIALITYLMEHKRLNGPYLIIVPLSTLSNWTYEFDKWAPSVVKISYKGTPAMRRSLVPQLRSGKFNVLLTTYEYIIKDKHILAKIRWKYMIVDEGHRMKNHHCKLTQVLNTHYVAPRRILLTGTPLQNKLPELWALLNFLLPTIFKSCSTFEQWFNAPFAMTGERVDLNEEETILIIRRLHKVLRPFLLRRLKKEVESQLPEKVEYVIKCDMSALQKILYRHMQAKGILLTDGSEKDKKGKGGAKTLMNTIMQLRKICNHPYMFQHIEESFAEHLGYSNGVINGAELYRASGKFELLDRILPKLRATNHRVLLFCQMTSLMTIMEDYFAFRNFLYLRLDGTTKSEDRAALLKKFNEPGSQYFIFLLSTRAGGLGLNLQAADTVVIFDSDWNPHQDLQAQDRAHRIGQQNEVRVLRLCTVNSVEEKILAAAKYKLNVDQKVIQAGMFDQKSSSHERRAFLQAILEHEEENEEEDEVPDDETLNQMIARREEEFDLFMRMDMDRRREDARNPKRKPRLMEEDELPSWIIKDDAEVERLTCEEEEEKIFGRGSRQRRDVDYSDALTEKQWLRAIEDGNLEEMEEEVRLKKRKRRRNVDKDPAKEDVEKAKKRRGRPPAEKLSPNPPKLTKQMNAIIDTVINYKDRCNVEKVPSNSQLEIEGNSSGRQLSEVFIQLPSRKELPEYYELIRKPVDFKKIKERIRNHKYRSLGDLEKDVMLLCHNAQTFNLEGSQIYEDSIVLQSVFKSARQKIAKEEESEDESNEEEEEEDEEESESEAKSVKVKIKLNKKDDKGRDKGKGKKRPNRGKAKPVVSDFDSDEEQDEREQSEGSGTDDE
Protocol: HiBiT-BRM cell-based degradation assay (Nano-Glo HiBiT Lytic Detection, 24 h)
Experimental conditions: HeLa cell line expressing HiBiT-BRM, read-out: BRM HiBit Degradation IC50
Measured quantity: DC50

Solved entries (count: 5):
INPUT: Value lookup for DC50; key = Cc1ncsc1-c1ccc([C@H](C)NC(=O)[C@@H]2C[C@@H](O)CN2C(=O)[C@@H](c2cc(OCCN(C)CCC(=O)N3CC(c4cc5cc(-c6ccccc6O)nnc5[nH]4)C3)no2)C(C)C)cc1 (racemic)
OUTPUT: > 0.1 µM

INPUT: Now the compound Cc1ncsc1-c1ccc([C@H](C)NC(=O)[C@@H]2C[C@@H](O)CN2C(=O)[C@@H](c2cc(OCCN3CCC34CC(c3c[nH]c5nnc(-c6ccccc6O)cc35)C4)no2)C(C)C)cc1 (mixture of isomers)
OUTPUT: > 0.1 µM

INPUT: Now the compound Cc1ncsc1-c1ccc([C@H](C)NC(=O)[C@@H]2C[C@@H](O)CN2C(=O)[C@@H](c2cc(OCC(=O)N[C@H]3CCc4[nH]c5nnc(-c6ccccc6O)cc5c4C3)no2)C(C)C)cc1 (single isomer, unassigned)
OUTPUT: > 0.01 µM

INPUT: Now the compound Cc1ncsc1-c1ccc([C@H](C)NC(=O)[C@@H]2C[C@@H](O)CN2C(=O)[C@@H](c2cc(OCCN3CC(c4[nH]c5nnc(-c6ccccc6O)cc5c4C4CC4)C3)no2)C(C)C)cc1 (racemic)
OUTPUT: > 0.01 µM

INPUT: Now the compound Cc1ncsc1-c1ccc([C@H](C)NC(=O)[C@@H]2C[C@@H](O)CN2C(=O)[C@@H](c2cc(N3CCC(N4CCc5[nH]c6nnc(-c7ccccc7O)cc6c5C4)CC3)no2)C(C)C)cc1 (racemic)
OUTPUT: > 0.1 µM

Others:
INPUT: Value lookup for DC50; key = Cc1ncsc1-c1ccc([C@H](C)NC(=O)[C@@H]2C[C@@H](O)CN2C(=O)[C@@H](c2cc(OCCN3CCCC(c4cc5cc(-c6ccccc6O)nnc5[nH]4)C3)no2)C(C)C)cc1 (mixture of isomers)
OUTPUT: > 0.01 µM

----------
Test target: HiBit-BRG1 fusion protein (Homo sapiens)
Construct: expressed in transfected cells
Protocol: HiBiT-BRG1 cell-based degradation assay (Nano-Glo HiBiT Lytic Detection, 24 h)
Experimental conditions: HeLa cell line expressing HiBit-BRG1 and LgBit, read-out: BRG1 HiBit Degradation Maximum (%)
This listing pairs molecules with measured Dmax.

Solved entries (count: 5):
INPUT: Value lookup for Dmax; key = Cc1ncsc1-c1ccc(CNC(=O)[C@@H]2C[C@@H](O)CN2C(=O)[C@@H](NC(=O)CCCCCCCCCCCCCCC(=O)N2CC(c3cc4cc(-c5ccccc5O)nnc4[nH]3)C2)C(C)(C)C)cc1 [Compound 21]
OUTPUT: < 50%

INPUT: Now the molecule O=C1CCC(N2C(=O)c3ccc(N4CC5(CN(CCC(=O)N6CC(c7cc8cc(-c9ccccc9O)nnc8[nH]7)C6)C5)C4)cc3C2=O)C(=O)N1 (stereo not drawn) [Compound 34]
OUTPUT: < 50%

INPUT: Now the molecule Cc1ncsc1-c1ccc([C@H](C)NC(=O)[C@@H]2C[C@@H](O)CN2C(=O)[C@@H](c2cc(C3CN(C(=O)c4cc5cc(-c6ccccc6O)nnc5[nH]4)C3)no2)C(C)C)cc1 (single isomer, unassigned) [Compound 178]
OUTPUT: < 50%

INPUT: Now the molecule Cc1ncsc1-c1ccc(CNC(=O)[C@@H]2C[C@@H](O)CN2C(=O)[C@@H](NC(=O)CCCCCNC(=O)[C@H]2CCc3[nH]c4nnc(-c5ccccc5O)cc4c3C2)C(C)(C)C)cc1 (racemic) [Compound 189]
OUTPUT: < 50%

INPUT: Now the molecule Cc1ncsc1-c1ccc([C@H](C)NC(=O)[C@@H]2C[C@@H](O)CN2C(=O)[C@@H](c2cc(N3CCC(CN[C@H]4CCc5[nH]c6nnc(-c7ccccc7O)cc6c5C4)CC3)no2)C(C)C)cc1 [Compound 159]
OUTPUT: > 75%

Others:
INPUT: Value lookup for Dmax; key = Cc1ncsc1-c1ccc([C@H](C)NC(=O)[C@@H]2C[C@@H](O)CN2C(=O)[C@@H](c2cc(N3CCN(C(=O)C(=O)N4CC(c5c[nH]c6nnc(-c7ccccc7O)cc56)C4)CC3)no2)C(C)C)cc1 (racemic) [Compound 267]
OUTPUT: < 50%

INPUT: Now the molecule Cc1ncsc1-c1ccc([C@H](C)NC(=O)[C@@H]2C[C@@H](O)CN2C(=O)[C@@H](c2cc(OCCN3CC(c4cc5cc(-c6ccccc6O)nnc5[nH]4)C3)no2)C(C)C)cn1 (single isomer, unassigned) [Compound 219]
OUTPUT: < 50%

INPUT: Now the molecule O=C1CCC(N2C(=O)c3cccc(OCCOCCOCCC(=O)N4CC(c5cc6cc(-c7ccccc7O)nnc6[nH]5)C4)c3C2=O)C(=O)N1 (stereo not drawn) [Compound 23]
OUTPUT: < 50%

INPUT: Now the molecule Cc1ncsc1-c1ccc([C@H](C)NC(=O)[C@@H]2C[C@@H](O)CN2C(=O)[C@@H](c2cc(OCCN3CCC(N4CC(c5[nH]c6nnc(-c7ccccc7O)cc6c5C)C4)CC3)no2)C(C)C)cc1 (racemic) [Compound 271]
OUTPUT: > 75%

----------
Test target: HiBit-BRG1 fusion protein (Homo sapiens, UniProt P51532)
Construct: expressed in transfected cells
Protocol: HiBiT-BRG1 cell-based degradation assay (Nano-Glo HiBiT Lytic Detection, 24 h)
Experimental conditions: HeLa cell line expressing HiBit-BRG1 and LgBit, read-out: BRMG1 HiBit Degradation IC50
Measured quantity: DC50

INPUT: Value lookup for DC50; key = Cc1ncsc1-c1ccc([C@H](C)NC(=O)[C@@H]2C[C@@H](O)CN2C(=O)[C@@H](c2cc(OCCN3C[C@@H]4[C@H](C3)[C@H]4c3[nH]c4nnc(-c5cccc(F)c5O)cc4c3C)no2)C(C)C)cc1 (racemic) [Compound 126]
OUTPUT: > 0.1 µM

Others:
INPUT: Value lookup for DC50; key = Cc1ncsc1-c1ccc([C@H](C)NC(=O)[C@@H]2C[C@@H](O)CN2C(=O)[C@@H](c2cc(N3CCC(CN4CCc5[nH]c6nnc(-c7ccccc7O)cc6c5[C@H]4C)CC3)no2)C(C)C)cc1 (racemic) [Compound 81]
OUTPUT: > 0.1 µM

INPUT: Now the compound Cc1ncsc1-c1ccc([C@H](C)NC(=O)[C@@H]2C[C@@H](O)CN2C(=O)[C@@H](c2cc(OCCN(C)Cc3ccc(Cc4cc5cc(-c6ccccc6O)nnc5[nH]4)cc3)no2)C(C)C)cc1 (racemic) [Compound 284]
OUTPUT: > 0.1 µM

INPUT: Now the compound Cc1ncsc1-c1ccc([C@H](C)NC(=O)[C@@H]2C[C@@H](O)CN2C(=O)[C@@H](c2cc(OCCN3C[C@@H]4[C@H](C3)[C@H]4c3cc4cc(-c5cc(F)ccc5O)nnc4[nH]3)no2)C(C)C)cc1 (racemic) [Compound 224]
OUTPUT: > 1 µM

INPUT: Now the compound Cc1ncsc1-c1ccc([C@H](C)NC(=O)[C@@H]2C[C@@H](O)CN2C(=O)[C@@H](c2cc(OCCCN3CCN(Cc4cc5cc(-c6ccccc6O)nnc5[nH]4)CC3)no2)C(C)C)cc1 (racemic) [Compound 214]
OUTPUT: > 0.1 µM

INPUT: Now the compound Cc1ncsc1-c1ccc([C@H](C)NC(=O)[C@@H]2C[C@@H](O)CN2C(=O)[C@@H](c2cc(C3CCN(C(=O)[C@@H]4CCc5[nH]c6nnc(-c7ccccc7O)cc6c5C4)CC3)no2)C(C)C)cc1 (single isomer, unassigned) [Compound 166]
OUTPUT: > 1 µM

INPUT: Now the compound Cc1ncsc1-c1ccc([C@H](C)NC(=O)[C@@H]2C[C@@H](O)CN2C(=O)[C@@H](c2cc(OCCN3CCC(N4CC(c5[nH]c6nnc(-c7ccccc7O)cc6c5C)C4)CC3)no2)C(C)C)cc1 (racemic) [Compound 271]
OUTPUT: > 0.01 µM

INPUT: Now the compound Cc1ncsc1-c1ccc([C@H](C)NC(=O)[C@@H]2C[C@@H](O)CN2C(=O)[C@@H](c2cc(OCCCN3C[C@@H]4[C@H](C3)[C@H]4c3c(C)[nH]c4nnc(-c5ccccc5O)cc34)no2)C(C)C)cc1 (racemic) [Compound 128]
OUTPUT: > 0.01 µM

INPUT: Now the compound Cc1ncsc1-c1ccc([C@H](C)NC(=O)[C@@H]2C[C@@H](O)CN2C(=O)[C@@H](c2cc(OCCN3CC(COc4c[nH]c5nnc(-c6ccccc6O)cc45)C3)no2)C(C)C)cc1 (racemic) [Compound 185]
OUTPUT: > 1 µM
